- TARGET: Granzyme B (human lymphocytes) (Homo sapiens (Human), UniProt P10144)
- Sequence (P10144 21-247): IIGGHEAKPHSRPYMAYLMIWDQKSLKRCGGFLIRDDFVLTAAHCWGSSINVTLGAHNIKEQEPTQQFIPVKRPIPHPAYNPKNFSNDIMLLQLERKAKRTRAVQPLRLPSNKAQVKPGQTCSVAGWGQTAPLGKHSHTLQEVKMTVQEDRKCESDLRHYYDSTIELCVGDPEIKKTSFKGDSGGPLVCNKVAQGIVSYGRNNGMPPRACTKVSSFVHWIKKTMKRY
- PROTOCOL_TEXT: human Granzyme B biochemical assay
- TEST_PARAMETERS: Granzyme B (human lymphocytes) 5 nM, substrate Ac-IETD-AFC 200 μM, Cpd incubation with enzyme 30 mins, 22° C., read time 60 mins; read-out: IC50
pIC50: −log10 of the molar value.
REPORTED_PROPERTY: pIC50

>  <COMPOUND_STRING>
COC(=O)[C@H](C)NC(=O)[C@@H]1Cc2cccc3c2N1C(=O)[C@@H](NC(=O)[C@@H](NC(C)=O)C(C)C)CC3

>  <RESULT>
< 5.30

$$$$
>  <COMPOUND_STRING>
COC(=O)CNC(=O)[C@@H]1Cc2cccc3c2N1C(=O)[C@@H](NC(=O)[C@@H](NC(C)=O)C(C)C)CC3

>  <RESULT>
< 5.30

$$$$
>  <COMPOUND_STRING>
CC[C@H](C)[C@H](NC(=O)COCCF)C(=O)N[C@H]1CCc2cccc3c2N(C1=O)[C@H](C(=O)NCc1ccco1)C3

>  <RESULT>
< 5.30

$$$$

Exam item: # return recorded pIC50 for input `CC[C@H](C)[C@H](NC(=O)COCCF)C(=O)N[C@H]1CCc2cccc3c2N(C1=O)[C@H](C(=O)NCc1cnoc1)C3`
Marked response: < 5.30

Exam item: Dear colleague, please send me the reported pIC50 for `CC[C@H](C)[C@H](NC(=O)c1cccnc1)C(=O)N[C@H]1CCc2cccc3c2N(C1=O)[C@H](C(=O)NCc1c[nH]nn1)C3` when you can.
Marked response: 6.52 to 9.00

Exam item: Supply reported pIC50 belonging to this compound: `CC(=O)N[C@H](C(=O)N[C@H]1CCc2cccc3c2N(C1=O)[C@H](C(=O)N[C@@H](CC(=O)O)C(=O)O)C3)C(C)C`
Marked response: < 5.30

Exam item: Supply measured pIC50 of `O=C(N[C@H](C(=O)N[C@H]1CCc2cccc3c2N(C1=O)[C@H](C(=O)NCc1c[nH]nn1)C3)C1CCCCC1)c1ccccc1` in your reply.
Marked response: 5.30 to 6.00

Exam item: Give the reported pIC50 for this compound. `O=C(Cc1csc2ccccc12)N[C@@H](Cc1ccc(O)cc1)C(=O)N[C@H]1CCc2cccc3c2N(C1=O)[C@H](C(=O)NCc1c[nH]nn1)C3`
Marked response: < 5.30

Exam item: Name the recorded pIC50 of the item `CC(=O)N[C@@H](Cc1ccc(F)cc1)C(=O)N[C@H]1CCc2cccc3c2N(C1=O)[C@H](C(=O)NCc1c[nH]nn1)C3` in your answer.
Marked response: 5.30 to 6.00

Exam item: Look up and state reported pIC50 for `CC[C@H](C)[C@H](NC(=O)COCCF)C(=O)N[C@H]1CCc2cccc3c2N(C1=O)[C@H](C(=O)NCc1cnco1)C3`
Marked response: < 5.30

Exam item: Given `CC[C@H](C)[C@H](NC(=O)COCCF)C(=O)N[C@H]1CCc2cccc3c2N(C1=O)[C@H](C(=O)NCc1cncs1)C3` , respond with its pIC50.
Marked response: < 5.30

Exam item: Tell me its pIC50 given `CC[C@H](C)[C@H](NC(=O)COCCF)C(=O)N[C@H]1CCc2cccc3c2N(C1=O)[C@H](C(=O)NCc1cc(Cl)cc(Cl)c1)C3` as the entry.
Marked response: < 5.30

Exam item: Look up pIC50 of `CC[C@H](C)[C@H](NC(=O)c1ccccc1)C(=O)N[C@H]1COc2cccc3c2N(C1=O)[C@H](C(=O)NCc1c[nH]nn1)C3` and report it.
Marked response: 6.52 to 9.00

Exam item: Hello, please tell me recorded pIC50 for this one: `CC(C)[C@H](NC(=O)Cc1ccccc1)C(=O)N[C@H]1CCc2cccc3c2N(C1=O)[C@H](C(=O)NCc1c[nH]nn1)C3`
Marked response: 6.52 to 9.00

Where do the numbers come from? From patent US11667645B2.
